Test: Half life in Swiss albino mouse at 10 mg/kg, po by LC/MS/MS method
Type: ADME, organism-based
Settings: in vivo
readoutLabel: half-life
Write your answer as a measured quantity: the number, then the unit.

Value of measured half-life for the entry Cc1ccc(-n2c(=O)ccc3ccc4ccc(-c5cnn(C)c5)cc4c32)cc1NC(=O)/C=C/CN(C)C : 1.53 h

###

Molecular target: Serine/threonine-protein kinase pim-1 (Homo sapiens)
Sequence (P11309 whole entry): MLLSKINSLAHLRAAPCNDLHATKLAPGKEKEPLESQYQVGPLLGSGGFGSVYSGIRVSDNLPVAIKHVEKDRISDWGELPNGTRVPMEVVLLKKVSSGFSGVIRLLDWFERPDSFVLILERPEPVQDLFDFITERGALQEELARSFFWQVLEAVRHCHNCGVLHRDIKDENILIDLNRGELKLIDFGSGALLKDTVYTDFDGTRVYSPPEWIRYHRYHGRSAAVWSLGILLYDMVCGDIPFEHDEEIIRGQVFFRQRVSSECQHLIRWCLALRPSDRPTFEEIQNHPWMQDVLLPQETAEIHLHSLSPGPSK
Assay: Inhibition of recombinant full length His-tagged human PIM1 expressed in baculovirus expression system by Z'-Lyte assay
readoutLabel: IC50 (nM)
Write the number in nM without appending the unit.

Lab note: compound Cc1ccc(-n2c(=O)ccc3ccc4ccc(-c5cnn(C)c5)cc4c32)cc1NC(=O)/C=C/CN(C)C tested on Serine/threonine-protein kinase pim-1 (Homo sapiens); recorded IC50 was 1790

###

Experiment: Oral bioavailability in Swiss albino mouse at 10 mg/kg by LC/MS/MS method
Assay type: ADME, organism-based
Conditions: in vivo
readoutLabel: bioavailability (%)
Write the number in % without appending the unit.

Value of measured bioavailability for the entry Cc1ccc(-n2c(=O)ccc3ccc4ccc(-c5cnn(C)c5)cc4c32)cc1NC(=O)/C=C/CN(C)C : 12

###

Experiment: Cmax in Swiss albino mouse at 50 mg/kg, ip by LC/MS/MS method
Format: ADME, organism-based
Design: dose 50 mg/kg, route intraperitoneal
Conditions: in vivo
readoutLabel: Cmax (ng/mL)
Write the number in ng/mL without appending the unit.

Value of measured Cmax for the entry Cc1ccc(-n2c(=O)ccc3ccc4ccc(-c5cnn(C)c5)cc4c32)cc1NC(=O)/C=C/CN(C)C : 4510

###

Assay: AUClast in Swiss albino mouse at 10 mg/kg, ip by LC/MS/MS method
Format: ADME, organism-based
Design: dose 10 mg/kg, route intraperitoneal, time 0 - last
Settings: in vivo
readoutLabel: AUC(0-t)

Value of measured AUC(0-t) for the entry Cc1ccc(-n2c(=O)ccc3ccc4ccc(-c5cnn(C)c5)cc4c32)cc1NC(=O)/C=C/CN(C)C : 1110 ng·h/mL

###

Assay: AUClast in Swiss albino mouse at 10 mg/kg, po by LC/MS/MS method
Type: ADME, organism-based
Parameters: dose 10 mg/kg, time 0 - last, route oral
Settings: in vivo
readoutLabel: AUC(0-t) (ng·h/mL)
Write the number in ng·h/mL without appending the unit.

Value of measured AUC(0-t) for the entry Cc1ccc(-n2c(=O)ccc3ccc4ccc(-c5cnn(C)c5)cc4c32)cc1NC(=O)/C=C/CN(C)C : 95.4

###

System: dengue virus type 2
Test: Antiviral activity against Dengue virus serotype 2 replicon harboring GVD mutant infected in HuH7 cells assessed as reduction in viral RNA translation at 2 uM measured at 6 hrs post infection by luciferase reporter gene assay relative to control
Format: functional
Parameters: scale not given: the % may be the effect or the level left
readoutLabel: Activity (%)
Write the number in % without appending the unit.

Solved entries (count: 2):
Value of measured Activity for the entry C=CC(=O)Nc1cc(-n2c(=O)ccc3cnc4ccc(N5CCN(c6ccccc6)CC5)cc4c32)ccc1C : 0

Value of measured Activity for the entry C=CC(=O)N1CCc2ccc(-n3c(=O)ccc4cnc5ccc(-c6cnn(C)c6)cc5c43)cc21 : 94

Next:
Value of measured Activity for the entry C=CC(=O)Nc1cc(-n2c(=O)ccc3cnc4ccc(-c5cn[nH]c5)cc4c32)ccc1C : 29

Value of measured Activity for the entry C=CC(=O)Nc1cc(-n2c(=O)ccc3cnc4ccc(-c5ccc6c(c5)OCO6)cc4c32)ccc1C : 32

Value of measured Activity for the entry C=CC(=O)Nc1cc(-n2c(=O)ccc3cnc4ccc(-c5cnn(C)c5)cc4c32)ccc1C : 40

Value of measured Activity for the entry C=CC(=O)Nc1cc(-n2c3c(ccc2=O)CCc2ccc(-c4ccc5ccncc5c4)cc2-3)ccc1C : 77

Value of measured Activity for the entry C=CC(=O)Nc1cc(-n2c(=O)ccc3cnc4ccc(-c5cnc6ccccc6c5)cc4c32)ccc1C : 82
